# Tested on: Phytophthora infestans
# Assay type: in vivo
# CONDITIONS: tomato, direct protectant foliar spray
Listed here are molecules together with their documented disease control rating PIP.

Some molecules with recorded disease control rating PIP:
q: disease control rating PIP lookup needed for CCN(CC1(C)CCCCC1)C1COC2(CCC(C(C)(C)C)CC2)C1 (centres unmarked) , thanks.
a: 0 (less than 50% disease control)

q: Also CCCCCCCCCCCCCCCCNC1COC2(CCC(C(C)(C)C)CC2)C1 (centres unmarked) , if possible.
a: 0 (less than 50% disease control)

q: Would you mind doing CC(C)CC(C)NC1COC2(CCC(C(C)(C)C)CC2)C1 (centres unmarked) as well?
a: 2 (greater than 80% disease control)

Further cases:
q: Which disease control rating PIP is reported for this molecule? CCCCN(CCCC)C1COC2(CCC(c3ccccc3)CC2)C1 (centres unmarked)
a: 0 (less than 50% disease control)

q: CC(C)CNC1COC2(CCC(C(C)(C)CC(C)(C)C)CC2)C1 (centres unmarked) , same question.
a: 0 (less than 50% disease control)

q: Then what about the molecule CCCCCC(C)NC1COC2(CCC(C(C)(C)C)CC2)C1 (centres unmarked) ?
a: 0 (less than 50% disease control)

q: Next molecule up: CC(C)(C)C1CCC2(CC1)CC(CCN)CO2.Cl (centres unmarked)
a: 2 (greater than 80% disease control)

q: Likewise for CC(C)(C)C1CCC2(CC1)CC(NCc1ccc(Cl)cc1)CO2 (centres unmarked) ?
a: 0 (less than 50% disease control)

q: Would you mind doing CCCCCN(C(C)C)C1COC2(CCC(C(C)(C)C)CC2)C1 (centres unmarked) as well?
a: 0 (less than 50% disease control)

q: Moving on to CC(C)CNC1COC2(CCC(C(C)(C)C3CCCCC3)CC2)C1 (centres unmarked)
a: 0 (less than 50% disease control)

q: And CCN(C1COC2(CCC(C(C)(C)C)CC2)C1)C1CC2CCC1C2 (centres unmarked) ?
a: 0 (less than 50% disease control)

====

Listed here are compounds together with their documented disease control rating BCB.
# System: Botrytis cinerea
# ASSAY_NAME: Direct protectant activity against broad bean grey mould (BCB)
# Assay type: in vivo
# CONDITIONS: direct protectant foliar spray, 600 ppm, 4 days

q: What is its disease control rating BCB for Botrytis cinerea? Entry: CC(C)(C)C1CCC2(CC1)CC(N1CCC(c3ccccc3)CC1)CO2 (centres unmarked)
a: 0 (less than 50% disease control)

q: What do you have for CC(C)(C)C1CCC2(CC1)CC(NC1CCCCC1)CO2 (centres unmarked) ?
a: 1 (about 50-80% disease control)

q: What about CN(C1CCCCC1)C1COC2(CCC(C(C)(C)C)CC2)C1 (centres unmarked) [Compound 80] ?
a: 1 (about 50-80% disease control)

Please turn your attention to the following entry.
q: What disease control rating BCB appears in the records for this compound with Botrytis cinerea? CCCC(CCC)NC1COC2(CCC(C(C)(C)C)CC2)C1 (centres unmarked)
a: 0 (less than 50% disease control)

====

# Test system: Phytophthora infestans
# Type: in vivo
# CONDITIONS: tomato, direct protectant foliar spray
Quick list: disease control rating PIP per entry.

q: Could you tell me which disease control rating PIP is on file for CC(C)(C)C1CCC2(CC1)CC(N1CCOCC1)CO2 (stereo not shown) ?
a: 0 (less than 50% disease control)

q: Follow-up entry: CCC(CC)N(CC)C1COC2(CCC(C(C)(C)C)CC2)C1 (stereo not shown)
a: 0 (less than 50% disease control)

q: Try this molecule too: CC(C)(C)C1CCC2(CC1)CC(NC1CCC(O)CC1)CO2 (stereo not shown)
a: 2 (greater than 80% disease control)

q: Then what about the molecule CC(C)(C)C1CCC2(CC1)CC(N1CCCCCC1)CO2 (stereo not shown) ?
a: 0 (less than 50% disease control)

q: CCCCCCN(C)C1COC2(CCC(C(C)(C)C)CC2)C1 (stereo not shown) ?
a: 0 (less than 50% disease control)

q: What would you report for CCCCCCNC1COC2(CCC(C(C)(C)C)CC2)C1 (stereo not shown) [Compound 37] ?
a: 0 (less than 50% disease control)

q: Repeat with CCCCCCNC1CC2(CCC(C(C)(C)C)CC2)OC1C (stereo not shown)
a: 2 (greater than 80% disease control)

q: What do we get for CC(=CC(=O)CC(C)C)NC1COC2(CCC(C(C)(C)C)CC2)C1 (stereo not shown) ?
a: 2 (greater than 80% disease control)

Others:
q: // returns reported disease control rating PIP for input CC(C)(C)C1CCC2(CC1)CC(NC1CCCCC1)CO2 (stereo not shown)
a: 0 (less than 50% disease control)

q: Same again, this time with CCCN(CC(C)C)C1COC2(CCC(C(C)(C)C)CC2)C1 (stereo not shown)
a: 0 (less than 50% disease control)

====

# Tested on: Botrytis cinerea
# ASSAY_NAME: Direct protectant activity against broad bean grey mould (BCB)
# Assay type: in vivo
# CONDITIONS: direct protectant foliar spray, 600 ppm, 4 days
QUANTITY: disease control rating BCB

Some entries whose results are on file:
q: Quick one: disease control rating BCB for CC(C)(C)C1CCC2(CC1)CC(NCCC1CCCCC1)CO2 (stereo not shown) [Compound 100] ?
a: 2 (greater than 80% disease control)

q: Note, next up: CC(C)(C)C1CCC2(CC1)CC(Nc1ccc(Cl)cc1)CO2 (stereo not shown) [Compound 23]
a: 0 (less than 50% disease control)

q: Moving on to the next molecule: CC1CCCCN1C1COC2(CCC(C(C)(C)C)CC2)C1 (stereo not shown) [Compound 17]
a: 0 (less than 50% disease control)

q: Moving on to the next molecule: CC(C)CN(CC(C)C)CC1COC2(CCC(C(C)(C)C)CC2)C1 (stereo not shown) [Compound 186]
a: 0 (less than 50% disease control)

q: And for CC(C)(C)C1CCC2(CC1)CC(NC1CCC3CCCCC3C1)CO2 (stereo not shown) [Compound 138] ?
a: 0 (less than 50% disease control)

q: Now give it for CCCCCCC(C)NC1COC2(CCC(C(C)(C)C)CC2)C1 (stereo not shown) [Compound 105] too.
a: 1 (about 50-80% disease control)

q: Note, next up: CCCCCCNC1CC2(CCC(C(C)(C)C)CC2)OC1C (stereo not shown) [Compound 84]
a: 0 (less than 50% disease control)

q: Another molecule to check: CCN(CC1CCCCC1)C1COC2(CCC(C(C)(C)C)CC2)C1 (stereo not shown) [Compound 92]
a: 2 (greater than 80% disease control)

q: Now give it for CCN(CC1(C)CCCCC1)C1COC2(CCC(C(C)(C)C)CC2)C1 (stereo not shown) [Compound 126] too.
a: 0 (less than 50% disease control)

Turning to the following molecule.
q: // disease control rating BCB lookup, key: CC1CN(C2COC3(CCCCC3)C2)CC(C)O1 (stereo not shown) [Compound 36]
a: 0 (less than 50% disease control)

====

# Test system: Phytophthora infestans
# Assay type: in vivo
# CONDITIONS: tomato, direct protectant foliar spray
Reported disease control rating PIP values for a set of compounds

Example entries and their recorded answers appear below.
q: Dear colleague, I am looking for the recorded disease control rating PIP of the following compound: CCCCCCN(C)C1COC2(CCC(C(C)(C)C3CCCCC3)CC2)C1 (stereo not drawn)
a: 0 (less than 50% disease control)

q: What do we get for CC(C)(C)C1CCC2(CC1)CC(CNC1CCCCC1)CO2 (stereo not drawn) [Compound 185] ?
a: 0 (less than 50% disease control)

Next:
q: Find the recorded disease control rating PIP belonging to CCCN(CC(C)(C)C)C1COC2(CCC(C(C)(C)C)CC2)C1 (stereo not drawn) and report it.
a: 0 (less than 50% disease control)

q: Likewise for CC(C)(C)C1CCC2(CC1)CC(NCCC1=CCCCC1)CO2 (stereo not drawn) ?
a: 2 (greater than 80% disease control)

====

# Test system: Phytophthora infestans
# Assay type: in vivo
# CONDITIONS: tomato, direct protectant foliar spray
QUANTITY: disease control rating PIP

q: Checklist item: disease control rating PIP tested on Phytophthora infestans, entry CCCCc1ccc(CNC2COC3(CCC(C(C)(C)C)CC3)C2)cc1 (stereo not shown) [Compound 26] , value?
a: 0 (less than 50% disease control)

Shifting focus to the compound that follows.
q: Checklist item: disease control rating PIP tested on Phytophthora infestans, entry CC1CCCN(C2COC3(CCC(C(C)(C)C)CC3)C2)C1 (stereo not shown) [Compound 18] , value?
a: 0 (less than 50% disease control)

====

# System: Botrytis cinerea
# ASSAY_NAME: Direct protectant activity against broad bean grey mould (BCB)
# Assay type: in vivo
# CONDITIONS: direct protectant foliar spray, 600 ppm, 4 days
Reported disease control rating BCB values follow for various compounds

Some compounds with recorded disease control rating BCB:
q: Look up disease control rating BCB with Botrytis cinerea for this compound: CC(C)(C)C1CCC2(CC1)CC(N1CCOCC1)CO2 (centres unmarked)
a: 0 (less than 50% disease control)

q: Same thing, different compound: CCCN(CC(C)C)C1COC2(CCC(C(C)(C)C)CC2)C1 (centres unmarked)
a: 0 (less than 50% disease control)

q: Check CCCCCCN(CCCCCC)C1COC2(CCC(C(C)(C)C)CC2)C1 (centres unmarked) too.
a: 0 (less than 50% disease control)

q: What about CCCCCN(C)C1COC2(CCC(C(C)(C)C)CC2)C1 (centres unmarked) ?
a: 1 (about 50-80% disease control)

New cases:
q: Observed disease control rating BCB on Botrytis cinerea for CCCCCCN(C)C1COC2(CCC(C(C)(C)CC)CC2)C1 (centres unmarked) , please.
a: 0 (less than 50% disease control)
